For each entry below, report its Inhibition value.
system: Plasmodium falciparum; test: GSK_TCMDC: Inhibition of Plasmodium falciparum 3D7 in whole red blood cells, using parasite LDH activity as an index of growth. Test compounds present at 2uM; type: functional
A complete answer gives the number followed by the unit.

Task: Identify measured Inhibition associated with Cc1ccc(C)c(Sc2ccc(NC(=O)CN3CCN(C(=O)c4ccco4)CC3)cc2)c1
Result: 96%

Task: Identify measured Inhibition associated with COc1ccc(C(=O)CCC(=O)N(Cc2ccc(-c3ccc(CNCCc4ccccc4)cn3)cc2)C(C)CN(C)C)cc1F.O=C(O)C(F)(F)F (stereo not drawn)
Result: 98%

Task: Identify measured Inhibition associated with COc1ccc(-c2ccc(NC(=O)c3cccc(Cl)c3)c(F)c2)cc1CNC(C)C.O=C(O)C(F)(F)F
Result: 93%

Task: Identify measured Inhibition associated with CN1CCC(N2CCN(Cc3cccc(-c4ccc(-c5nc6cc(F)ccc6[nH]5)cc4)c3)CC2)CC1.O=C(O)C(F)(F)F
Result: 100%

Task: Identify measured Inhibition associated with COc1ccc(CC2(c3ccc(F)cc3)N=C(N)N(CCCc3cccnc3)C2=O)cc1.O=C(O)C(F)(F)F (stereo not drawn)
Result: 98%

Task: Identify measured Inhibition associated with Cc1cc(Cl)c(S(=O)(=O)NC2CCCC2)cc1OCC(=O)NC1CCCCC1
Result: 97%

Task: Identify measured Inhibition associated with CC(C)N(CCOc1ccc2c(c1)N(C(=O)Nc1ccc(Cl)c(Cl)c1)CC2)C(C)C.O=C(O)C(F)(F)F
Result: 100%

Task: Identify measured Inhibition associated with CNS(=O)(=O)c1ccc(NC(=O)c2cc(-c3cccnc3)nc3ccc(Br)cc23)cc1
Result: 100%

Task: Identify measured Inhibition associated with Cl.Oc1ccc2[nH]c(-c3cccs3)nc2c1CN1CCC(N2CCCC2)CC1
Result: 100%

Task: Identify measured Inhibition associated with COc1ccc(-n2cc(CNCCCn3ccnc3)c(-c3cccc(F)c3)n2)cc1
Result: 98%

Task: Identify measured Inhibition associated with Cc1nc(NC(=N)N)nc2cc3c(cc12)CCC3.Cl
Result: 90%

Task: Identify measured Inhibition associated with COc1cc(F)c2ncc(Cl)c([C@@H](O)CN3CCC(NCc4cc5c(cn4)OCCO5)CC3)c2c1.Cl
Result: 100%

Task: Identify measured Inhibition associated with Cc1cc(NC(=O)Nc2ccc3ccn(C)c3c2)c2ccccc2n1
Result: 100%

Task: Identify measured Inhibition associated with COc1cc2c(cc1OCCN1CCC(N)CC1)N(C(=O)/C=C/c1ccccc1Cl)CC2.Cl
Result: 91%

Task: Identify measured Inhibition associated with NC1=NC(c2ccccc2)(c2ccccn2)C(=O)N1CCCc1ccccc1.O=C(O)C(F)(F)F (stereo not drawn)
Result: 85%

Task: Identify measured Inhibition associated with CC(C)(C)c1ccc(CN2CCC(NC(=O)c3ccc(-c4ccccc4F)s3)CC2)cc1.O=C(O)C(F)(F)F
Result: 85%

Task: Identify measured Inhibition associated with CCOC(=O)C1=C(C)N=c2sc(=Cc3cc(Cl)ccc3O)c(=O)n2C1c1ccc(OC)cc1 (stereo not drawn)
Result: 99%

Task: Identify measured Inhibition associated with Cc1noc(C)c1-c1cccc(CNCc2cccc(-c3cccc(-c4nc5ccccc5[nH]4)c3)c2)c1.O=C(O)C(F)(F)F
Result: 100%
